Listed here are compounds together with their documented MTD at 2 weeks.
- test.protocol: Toxicity test on mice (maximum tolerated dose, intravenous injection)
- test.conditions: mouse, in vivo; female NMRI mice, intravenous injection into the tail vein, observed two weeks
Where a name gives a salt, the structure may show the parent alone.
Give just the number in mg/kg; leave the unit off.

Cc1c(C)c2c(c(C)c1CCCCCCN)CCC(C)(COc1ccc(/C=C3\SC(=O)N(C)C3=O)cc1)O2 (racemic) [D, trifluoroacetate] | 65.5

Exam item: Need MTD at 2 weeks, item Cc1c(C)c2c(c(C)c1CCCCCCN)CCC(C)(COc1ccc(/C=C3\SC(=O)NC3=O)cc1)O2 (racemic) [E, trifluoroacetate]
Marked response: 34
